Target: T1, human IFN-ω (human, UniProt P05000 24-195)
T1 construct: Recombinant, HEK293; also called interferon omega
Experiment: ProteOn SPR, cell supernatant;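 note: each binding measurement used just a single antigen concentration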
The reader will find reported Kd values listed item by item below.
Measurement name: Kd (nM)

{"Binder": "IFWM3414 (antibody, IgG1, V domains shown, mAb; IgG1/kappa said of the parent and of selected mAbs; also called IFWB3149) VH: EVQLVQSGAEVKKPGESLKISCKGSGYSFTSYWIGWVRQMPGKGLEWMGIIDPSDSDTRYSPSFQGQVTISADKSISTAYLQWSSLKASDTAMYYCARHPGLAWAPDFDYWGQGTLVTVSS VL: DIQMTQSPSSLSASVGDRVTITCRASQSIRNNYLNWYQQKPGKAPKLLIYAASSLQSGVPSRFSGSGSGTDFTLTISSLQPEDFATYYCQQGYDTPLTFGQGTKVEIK", "Unit abbreviation": "nM", "Readout number": 0.058}
{"Binder": "IFWM3383 (antibody, IgG1, V domains shown, mAb; IgG1/kappa said of the parent and of selected mAbs; also called IFWB3118) VH: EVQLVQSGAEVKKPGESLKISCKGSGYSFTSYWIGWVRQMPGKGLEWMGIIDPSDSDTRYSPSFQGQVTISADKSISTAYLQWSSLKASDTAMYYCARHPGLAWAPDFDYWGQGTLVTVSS VL: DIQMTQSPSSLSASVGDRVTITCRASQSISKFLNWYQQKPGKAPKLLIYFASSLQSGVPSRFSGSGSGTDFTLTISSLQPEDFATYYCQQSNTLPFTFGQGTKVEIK", "Unit abbreviation": "nM", "Readout number": 0.028}
{"Binder": "IFWM3375 (antibody, IgG1, V domains shown, mAb; IgG1/kappa said of the parent and of selected mAbs; also called IFWB3110) VH: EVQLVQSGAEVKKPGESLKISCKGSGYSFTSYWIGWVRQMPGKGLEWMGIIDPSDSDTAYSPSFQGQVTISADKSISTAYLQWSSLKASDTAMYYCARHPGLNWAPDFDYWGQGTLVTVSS VL: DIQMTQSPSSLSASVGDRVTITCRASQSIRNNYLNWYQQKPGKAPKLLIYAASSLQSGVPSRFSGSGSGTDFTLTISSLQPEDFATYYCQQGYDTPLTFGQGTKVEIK", "Unit abbreviation": "nM", "Readout number": 0.019}

Reference source: patent US20150368338A1
